Target: human VAChT (Homo sapiens, UniProt Q16572)
Sequence (Q16572 1-532): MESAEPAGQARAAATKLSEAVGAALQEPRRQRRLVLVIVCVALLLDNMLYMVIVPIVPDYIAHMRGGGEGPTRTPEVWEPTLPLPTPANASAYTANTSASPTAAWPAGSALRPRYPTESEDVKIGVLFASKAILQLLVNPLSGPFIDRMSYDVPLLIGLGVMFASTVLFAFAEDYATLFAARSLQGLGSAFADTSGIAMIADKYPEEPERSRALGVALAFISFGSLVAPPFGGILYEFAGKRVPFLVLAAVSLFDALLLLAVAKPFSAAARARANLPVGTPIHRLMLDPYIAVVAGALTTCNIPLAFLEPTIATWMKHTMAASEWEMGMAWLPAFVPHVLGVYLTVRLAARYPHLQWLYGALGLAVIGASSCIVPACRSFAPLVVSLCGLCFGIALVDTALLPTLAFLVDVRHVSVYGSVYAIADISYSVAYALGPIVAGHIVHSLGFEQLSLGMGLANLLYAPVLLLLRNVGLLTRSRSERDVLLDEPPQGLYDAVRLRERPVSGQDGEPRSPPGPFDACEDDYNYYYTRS
IC50 under 0.5 nM gets Met, anything at or over 0.5 nM gets Not met.

{"COMPOUND": "O=C(c1ccc(Br)cc1)C1CCN([C@@H]2Cc3ccccc3C[C@H]2O)CC1 (racemic) [Compound 9b]", "LABEL_CLASS": "Met"}
{"COMPOUND": "O=C(c1ccc([N+](=O)[O-])cc1)C1CCN([C@@H]2Cc3ccccc3C[C@H]2O)CC1 (racemic) [Compound 9d]", "LABEL_CLASS": "Met"}
{"COMPOUND": "O=C(c1ccc(F)cc1)C1CCN([C@@H]2Cc3ccccc3C[C@H]2O)CC1 (relative stereo) [(±)9e]", "LABEL_CLASS": "Not met"}
{"COMPOUND": "O=C(c1ccccc1)C1CCN([C@@H]2Cc3ccccc3C[C@H]2O)CC1 (racemic) [Compound 9a]", "LABEL_CLASS": "Not met"}
{"COMPOUND": "Nc1ccc(C(=O)C2CCN([C@@H]3Cc4ccccc4C[C@H]3O)CC2)cc1 (racemic) [Compound 9c]", "LABEL_CLASS": "Not met"}

###

Reported values of Ki for individual entries
Target: human VAChT (Homo sapiens, UniProt Q16572)
Sequence (Q16572 1-532): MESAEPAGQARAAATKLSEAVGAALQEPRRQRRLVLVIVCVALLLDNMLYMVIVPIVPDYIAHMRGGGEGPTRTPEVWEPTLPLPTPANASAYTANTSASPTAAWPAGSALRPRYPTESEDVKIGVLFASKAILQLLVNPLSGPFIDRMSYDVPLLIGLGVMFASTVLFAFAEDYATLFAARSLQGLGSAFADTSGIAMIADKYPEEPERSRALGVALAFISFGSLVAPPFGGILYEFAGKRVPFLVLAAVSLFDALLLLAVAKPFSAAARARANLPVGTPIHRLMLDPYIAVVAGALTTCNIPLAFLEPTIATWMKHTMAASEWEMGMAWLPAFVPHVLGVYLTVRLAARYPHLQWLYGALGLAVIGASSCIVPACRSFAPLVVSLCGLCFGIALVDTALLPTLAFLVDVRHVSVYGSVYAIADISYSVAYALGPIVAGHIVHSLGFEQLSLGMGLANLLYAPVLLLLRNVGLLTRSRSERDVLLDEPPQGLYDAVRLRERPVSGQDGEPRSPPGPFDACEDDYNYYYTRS
Assay: VAChT binding, competition against [^3H]vesamicol
Conditions: VAChT (Ki [nM]), [^3H]vesamicol competition; mean ± SEM

{"COMPOUND": "O=C(c1ccc(F)cc1)C1CCN([C@@H]2Cc3ccccc3C[C@H]2O)CC1 (single isomer, unassigned) [(+)-9e]", "Ki": "108 nM"}
{"COMPOUND": "O=C(c1ccc(F)cc1)C1CCN([C@@H]2Cc3ccccc3C[C@H]2O)CC1 (relative stereo) [(±)9e]", "Ki": "2.7 nM"}

The measurements presented in this section are drawn from paper PMC2765529.
